B1: Twister Ribozyme (parent)
chain: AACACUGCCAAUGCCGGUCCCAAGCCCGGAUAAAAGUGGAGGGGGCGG

Variants of: B1
experiment_description: self-cleavage, relative activity (ratio to wild type); higher = more cleavage; co-transcriptional
Below is a list of entries, each paired with its recorded self-cleavage value.

Reference set, count: 4
- C14G C15A: 0.644
- G17C G47U: 0.0863
- C9G A34G: 0.238
- A1G U6A: 0.346

Query: Give recorded self-cleavage. C21U G44C
Result: 0.0722

Query: Give recorded self-cleavage. C21A A35G
Result: 0.0738

Query: Give recorded self-cleavage. G17A G36C
Result: 0.118

Query: Give recorded self-cleavage. A34U G43U
Result: 0.193

Query: Give recorded self-cleavage. U37A G44A
Result: 0.873

Query: Give recorded self-cleavage. C25U G41C
Result: 0.147

Query: Give recorded self-cleavage. C14A G43A
Result: 0.309

Query: Give recorded self-cleavage. G13U G38A
Result: 0.226

Query: Give recorded self-cleavage. G7A G28C
Result: 0.227

Query: Give recorded self-cleavage. G43C G45A
Result: 0.294

Query: Give recorded self-cleavage. C3A A33G
Result: 0.0867

Query: Give recorded self-cleavage. C15G A30U
Result: 0.108

Query: Give recorded self-cleavage. U12C C15U
Result: 1.09

Query: Give recorded self-cleavage. A10U U12G
Result: 0.759

Query: Give recorded self-cleavage. U37C G42C
Result: 0.196

Query: Give recorded self-cleavage. A2G U31C
Result: 0.3

Query: Give recorded self-cleavage. C3A C25G
Result: 0.12

Query: Give recorded self-cleavage. G16U A35C
Result: 0.961
